# test-target: Retinaldehyde dehydrogenase 3 (Homo sapiens) (UniProt P47895)
# method-description: qHTS for Inhibitors of the Aldehyde Dehydrogenase Family (ALDH1A3) Primary screen (AID 2061315);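 further: plate controls were DMSO vehicle for no effect and reference inhibitor for full effect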
# study-conditions: ALDH inhibition qHTS; series mostly up to 56 µM
Records with an inconclusive call do not appear. Active and inactive are the calls of the source. The call rests on the fitted dose curve; in most records, active means well fitted inhibition curve with a large enough effect; inconclusive means small, poorly fitted or top-dose-only effect; inactive means no such curve, though single readings can be large or run the other way.
measured-quantity: activity change, negative = inhibition

1. CC1(C)CC[C@]2(C(=O)O)CC[C@]3(C)C(=CCC4[C@@]5(C)C[C@H](O)[C@H](O[C@@H]6O[C@H](CO)[C@@H](O)[C@H](O)[C@H]6O)[C@@](C)(CO)C5[C@H](O)C[C@]43C)[C@@H]2C1 (stereo partly drawn)
inactive
2. CC(C)C[C@H](NC(=O)[C@@H]1O[C@H]1C(=O)O)C(=O)NCCCCN=C(N)N
inactive
3. COc1c(O[C@@H]2O[C@H](CO)[C@@H](O)[C@H](O)[C@H]2O)c(CCC(=O)O)cc2ccoc12
inactive

###

Each record here notes measured activation.
# test-target: Cellular tumor antigen p53 (Homo sapiens) (UniProt P04637)
# Sequence (P04637 whole entry, looked up): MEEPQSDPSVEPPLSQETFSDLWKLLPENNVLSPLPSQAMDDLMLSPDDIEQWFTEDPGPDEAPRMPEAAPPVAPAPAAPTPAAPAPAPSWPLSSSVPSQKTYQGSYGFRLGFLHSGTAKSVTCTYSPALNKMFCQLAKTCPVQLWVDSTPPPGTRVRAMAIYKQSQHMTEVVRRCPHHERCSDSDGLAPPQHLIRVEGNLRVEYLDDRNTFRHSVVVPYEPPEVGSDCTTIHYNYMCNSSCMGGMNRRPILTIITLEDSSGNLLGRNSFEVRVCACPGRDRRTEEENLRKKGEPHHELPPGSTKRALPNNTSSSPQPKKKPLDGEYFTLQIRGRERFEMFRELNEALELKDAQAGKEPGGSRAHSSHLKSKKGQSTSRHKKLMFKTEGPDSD
# method-description: Primary qHTS for small molecule compounds that upregulate eGFP-tagged delta133p53alpha (in N-terminal) cells. (AID 2060322);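 further: cells pre-induced with doxycycline then dosed without doxycycline; 0% = DMSO vehicle and 100% = reference activator; nearly all actives have a fitted effect of over 75% in size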
# study-conditions: NCI-H358 eGFP-delta133p53alpha fluorescence, 24 h; hits give high values
Inconclusive results are not listed.
Report as a plain number; the unit % is understood.

1) C/C(=C\CC[C@H](CO)[C@@H]1CC[C@]2(C)C3=C(CC[C@@]12C)[C@@]1(C)CCC(=O)C(C)(C)C1CC3)C(=O)O (stereo partly drawn)
-4.58

In: // activation lookup, key: C=C1CC[C@@H]2[C@](C)(CO)[C@H](O)CC[C@@]2(C)[C@@H]1C/C=C1/C(=O)OCC1OC(=O)/C(=C/CO)C(O)C[C@@H]1C(=C)CC[C@@H]2[C@](C)(CO)[C@H](O)CC[C@]21C (stereo partly drawn)
Out: 13

In: Quick one: O=C(CSc1nc2c(c(=O)n1-c1ccccc1)SCC2)Nc1ccc(-c2ccccc2)cn1
Out: 11.5

###

Each record here notes measured viability (% of control).
# method-description: BET inhibitor-based combinations targeting novel dependencies in MECOM-rearranged (r) AML: OCI-AML3 cell line (AID 2202232); further: nearly all actives have a fitted effect of over 35% in size;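 on viability (% of control): plate controls were DMSO vehicle wells for no effect and wells without cells for full effect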
# study-conditions: CellTiter-Glo luminescence, 48 h; series mostly up to 46 µM
Inconclusive results are not listed. The source made the active and inactive calls. The call rests on the fitted dose curve; in most records, active means well fitted inhibition curve with a large enough effect; inconclusive means small, poorly fitted or top-dose-only effect; inactive means no such curve, though single readings can be large or run the other way.

1. CN[C@@H](C)[C@H]1[C@H](O)C[C@@]2(C)[C@@H]3CC[C@H]4C(C)(C)[C@@H](NC)CC[C@@]45C[C@@]35CC[C@]12C
106% [at 8.46 µM] (inactive)
2. Nc1ccn(C[C@@H](CO)OCP(=O)(O)O)c(=O)n1
113% [at 8.46 µM] (inactive)
3. CCN(CCO)CCCC(C)Nc1ccnc2cc(Cl)ccc12 (stereo not given)
48.6% [at 5.12 µM] (inactive)
4. Cn1cc(C2=C(c3c4n(c5ccccc35)CCC(CN)C4)C(=O)NC2=O)c2ccccc21 (stereo not given)
88.4% [at 8.46 µM] (inactive)

In: // viability (% of control) lookup, key: CC1CCC(n2c3cnccc3c3cnc(Nc4ccc5c(n4)CCN(C(=O)CO)C5)nc32)CC1 (stereo not given)
Out: 86.5% [at 8.46 µM] (inactive)

###

Each record here notes measured activation.
# test-target: Cellular tumor antigen p53 (Homo sapiens)
# method-description: Primary qHTS for small molecule compounds that upregulate eGFP-tagged delta133p53alpha (in N-terminal) cells. (AID 2060322);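 further: cells pre-induced with doxycycline then dosed without doxycycline; 0% = DMSO vehicle and 100% = reference activator; nearly all actives have a fitted effect of over 75% in size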
# study-conditions: NCI-H358 eGFP-delta133p53alpha fluorescence, 24 h; hits give high values
Results filed as inconclusive are left out. Activity calls are given as the source filed them. Calls come from the whole dose curve; as a rule, active = well fitted activation curve with a large enough effect; inconclusive = small, poorly fitted or top-dose-only effect; inactive = no such curve, though single readings can be large or run the other way. Square brackets hold non-standard residues; d marks the D form. Peptide text beside a SMILES is read from it. ξ: configuration not given here. ξPhe(βξ-Me) = CC(c1ccccc1)C(N)C(=O)O; GABA = NCCCC(=O)O

Please review the entries below; each comes with its answer.
1) CC[C@H]1CN(c2nc(N)c(C(N)=O)nc2Cl)CCN1C1CCN(Cc2ccc(Cl)cc2)CC1
3.34% (inactive)
2) O=C(c1ccc(Cl)cc1)N1CCN(c2ccc([N+](=O)[O-])c3ncccc23)CC1
-9.46% (inactive)
3) O=C(O)c1ccc(NC(=O)[C@H](CC2CCCC2)n2cnc(C(F)(F)F)c2)nc1
-23.2% (inactive)

In: // activation lookup, key: CC(C)CC1NC(=O)C(C(C)c2ccccc2)NC(=O)C(C(C)C)NC(=O)C(C)NC(=O)CCCNC(=O)C(Cc2c[nH]c3ccccc23)NC(=O)C(C)NC1=O (stereo not drawn) (cyclo([GABA]AV[ξPhe(βξ-Me)]LAW); configuration not given here)
Out: 8.4% (inactive)

In: Quick one: O=C(Cc1ccccc1)OC[C@H]1O[C@H](O[C@H]2O[C@H](CO)[C@@H](O)[C@H](O)[C@H]2O)[C@H](O)[C@@H](O)[C@@H]1O
Out: -3.05% (inactive)

In: Quick one: COc1cccc2c1C(=O)c1c(O)c3c(c(O)c1C2=O)C[C@@](O)(C(=O)CO)C[C@@H]3O[C@H]1C[C@H](N)[C@@H](O)[C@H](C)O1
Out: -26.9% (inactive)

In: Quick one: Cc1cc2nc3c(=O)[nH]c(=O)nc-3n(CC(O)C(O)C(O)CO)c2cc1C (configuration not stated)
Out: -37.4% (inactive)

###

# method-description: BET inhibitor-based combinations targeting novel dependencies in MECOM-rearranged (r) AML: OCI-AML3 cell line (AID 2202232); further: nearly all actives have a fitted effect of over 35% in size
# study-conditions: CellTiter-Glo luminescence, 48 h; OCI-AML3 viability; series mostly up to 46 µM
Records with an inconclusive call do not appear. Calls of active or inactive are those of the source. The call rests on the fitted dose curve; in most records, active means well fitted inhibition curve with a large enough effect; inconclusive means small, poorly fitted or top-dose-only effect; inactive means no such curve, though single readings can be large or run the other way.
One label from this list, please: yes (active), no (inactive)

1) CC(=O)SCC(Cc1ccccc1)C(=O)NCC(=O)OCc1ccccc1 (stereo not given)
no

In: Outcome? O=C(O)c1ccc(-n2nc(-c3ccccc3O)nc2-c2ccccc2O)cc1
Out: yes

In: Quick one: COc1ccc(CCN2CCN(CCCc3ccccc3)CC2)cc1OC
Out: no

###

# test-target: Retinaldehyde dehydrogenase 3 (Homo sapiens)
# method-description: qHTS for Inhibitors of the Aldehyde Dehydrogenase Family (ALDH1A3) Validation screen (AID 2061312); further: nearly all actives have a fitted effect of over 45% in size
# study-conditions: ALDH1A3 enzyme inhibition qHTS validation, fluorescence; series mostly up to 84.7 µM
Records with an inconclusive call do not appear. Activity calls are given as the source filed them. The call rests on the fitted dose curve; in most records, active means well fitted inhibition curve with a large enough effect; inconclusive means small, poorly fitted or top-dose-only effect; inactive means no such curve, though single readings can be large or run the other way.
One label from this list, please: 1 = active, -1 = inactive

# example entries with known answers
1) CC(C)(Oc1ccc(-c2nc3cc(Cl)ccc3s2)cc1)C(=O)O
1
2) CNc1ccc([N+](=O)[O-])c(Nc2ccc3[nH]ncc3c2)n1
-1
3) COC(=O)[C@@]1(c2ccc(C)cc2)C[C@H]1CN1CCC(O)(c2ccccc2)CC1
-1

In: Outcome? Cn1c(SCC(=O)N2CCC[C@H]2C(=O)Nc2ccccc2-c2ccccc2)nc2ccccc21
Out: -1

In: Quick one: CCOc1c2c(c(OCC)c3ccccc13)C(=O)N(c1ccc(CC(=O)NS(=O)(=O)c3ccccc3)cc1)C2
Out: -1

In: Quick one: O=C(O)CCC(=O)N1CCCC1C(=O)O (configuration not stated)
Out: -1

In: Quick one: COC(=O)c1ccc2c(c1)[nH]c1ncnc(NCCCN3CCCCC3)c12
Out: 1

In: Quick one: CC(=O)SC1CC2=CC(=O)CC[C@]2(C)C2CC[C@@]3(C)C(CC[C@@]34CCC(=O)O4)C12 (some centres not stated)
Out: -1

In: Quick one: CCc1nc(-c2cccc(C)c2)c(-c2ccnc(NC(=O)c3ccccc3)c2)s1
Out: -1

In: Quick one: COc1cc(CCc2cc(NC(=O)c3ccc(N4C[C@@H](C)N[C@@H](C)C4)cc3)n[nH]2)cc(OC)c1
Out: -1

In: Quick one: NCc1c[nH]c(=S)n1C1CCc2c(F)cc(F)cc2C1 (configuration not stated)
Out: -1

In: Quick one: CCCOC(=O)c1c(-c2ccccc2)nc(CC)c(C(=O)SCC)c1CCC
Out: -1

In: Quick one: COc1nc2ccc(Br)cc2cc1[C@@H](c1ccccc1)[C@@](O)(CCN(C)C)c1cccc2ccccc12
Out: 1

In: Quick one: C[C@H](Oc1cc(-c2cnn(C3CCNCC3)c2)cnc1N)c1c(Cl)ccc(F)c1Cl
Out: -1

In: Quick one: C[C@@H](NC(=O)[C@H](O)c1cc(F)cc(F)c1)C(=O)N[C@@H]1C(=O)N(C)c2ccccc2-c2ccccc21
Out: -1

In: Quick one: CN1CCC(=C2c3ccccc3CC(=O)c3sccc32)CC1
Out: -1

In: Quick one: CC(C)(C)c1ccc(CNC(=S)NCc2ccc(NS(C)(=O)=O)c(F)c2)cc1
Out: -1
